# MIC per entry
- Test system: Enterococcus faecalis
- Experiment notes: Antibacterial activity against Enterococcus faecalis KCTC 2011 after 20 hrs by twofold serial broth dilution method
- Assay type: functional
- Test conditions: KCTC 2011, 20 h

Compound	MIC
O=c1c(O)c(-c2ccccc2)oc2ccc(O)cc12	128 µM
C=C/C(C)=C/[C@@]1(C)SC(=O)C(C)=C1O [THIOLACTOMYCIN]	256 µM
COc1ccc(-c2coc3cc(O[C@@H]4O[C@H](CO)[C@@H](O)[C@@H](O)[C@@H]4O)cc(O)c3c2=O)cc1	> 1020 µM
O=C(CCc1ccc(O)cc1)c1c(O)cc(O)cc1O [PHLORETIN]	128 µM
O=c1c(O)c(-c2ccc(O)cc2)oc2ccc(O)cc12	> 1020 µM
